# measurement-target: Monoacylglycerol lipase ABHD6 (Mus musculus) (UniProt Q8R2Y0)
# Sequence (Q8R2Y0 whole entry, looked up): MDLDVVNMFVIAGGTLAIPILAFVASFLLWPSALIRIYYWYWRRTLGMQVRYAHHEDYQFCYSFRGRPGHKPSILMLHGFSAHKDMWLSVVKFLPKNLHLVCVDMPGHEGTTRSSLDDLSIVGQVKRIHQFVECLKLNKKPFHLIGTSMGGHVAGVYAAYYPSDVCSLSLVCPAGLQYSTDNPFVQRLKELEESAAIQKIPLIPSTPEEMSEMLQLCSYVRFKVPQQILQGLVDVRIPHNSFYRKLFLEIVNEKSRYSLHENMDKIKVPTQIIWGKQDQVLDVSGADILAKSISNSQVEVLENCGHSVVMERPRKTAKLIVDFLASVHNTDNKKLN
# protocol-notes: serine hydrolase off-target inhibition in mouse brain, late-stage follow-up, selectivity assay for DAGLb inhibitor project, biochemical, gel-based competitive ABPP, mouse brain membrane, set 3 (AID 602321)
# condition-label: gel-based competitive ABPP fluorescence, inhibition, at 1 µM, stronger effect = higher value
endpoint-name: inhibition
Could you kindly put the unit after your number?

Study these solved cases before continuing.
[[record]]
molecule = "O=C(c1ccc(-c2ccc(-c3cn(C(=O)N4CCCCC4Cc4ccccc4)nn3)cc2)cc1)N1CCCCC1 (centres undefined)"
measured_result = "98%"

[[record]]
molecule = "O=C(N1CCCCC1c1ccccc1)n1cc(-c2ccc(-c3ccc(CO)cc3)cc2)nn1 (centres undefined)"
measured_result = "98%"

[[record]]
molecule = "O=C(N1CCCCC1Cc1ccccc1)n1cc(-c2ccc(-c3cccc(CO)c3)cc2)nn1 (centres undefined)"
measured_result = "98%"

[[record]]
molecule = "O=C(O)c1cccc(-c2ccc(-c3cn(C(=O)N4CCCCC4CCc4ccccc4)nn3)cc2)c1 (centres undefined)"
measured_result = "98%"

[[record]]
molecule = "O=C(O)c1ccc(-c2ccc(-c3cn(C(=O)N4CCCCC4CCc4ccccc4)nn3)cc2)cc1 (centres undefined)"
measured_result = "90%"


Please look at this molecule and report its inhibition: O=C(O)c1cccc(-c2ccc(-c3cn(C(=O)N4CCCCC4c4ccccc4)nn3)cc2)c1 (centres undefined) 98%

Determine from records and report inhibition for NC(=O)c1ccc(-c2ccc(-c3cn(C(=O)N4CCCCC4c4ccccc4)nn3)cc2)cc1 (centres undefined) 98%

Supply inhibition value. Item: O=C(N1CCCCC1c1ccccc1)n1cc(-c2ccc(-c3ccccc3CO)cc2)nn1 (centres undefined) 98%

Report inhibition for O=C(c1ccc(-c2ccc(-c3cn(C(=O)N4CCCCC4c4ccccc4)nn3)cc2)cc1)N1CCCCC1 (centres undefined) 98%

====

# Tested on: FAAH
# protocol-notes: serine hydrolase off-target inhibition in mouse brain, late-stage follow-up, selectivity assay for DAGLb inhibitor project, biochemical, gel-based competitive ABPP, mouse brain membrane, set 3 (AID 602321)
# condition-label: gel-based competitive ABPP fluorescence, at 10 µM, stronger effect = higher value
Attribute: inhibition
// note: answer is a bare numeric in %

The following compounds have reported results that may help.
[[record]]
compound = "O=C(c1ccc(-c2ccc(-c3cn(C(=O)N4CCCCC4Cc4ccccc4)nn3)cc2)cc1)N1CCCCC1 (centres undefined)"
unit_of_measurement = "%"
measured_result = 0

[[record]]
compound = "O=C(O)c1ccc(-c2ccc(-c3cn(C(=O)N4CCCCC4CCc4ccccc4)nn3)cc2)cc1 (centres undefined)"
unit_of_measurement = "%"
measured_result = 35

[[record]]
compound = "O=C(O)c1cccc(-c2ccc(-c3cn(C(=O)N4CCCCC4CCc4ccccc4)nn3)cc2)c1 (centres undefined)"
unit_of_measurement = "%"
measured_result = 95


Read off the recorded inhibition for O=C(N1CCCCC1c1ccccc1)n1cc(-c2ccc(-c3ccccc3CO)cc2)nn1 (centres undefined) 98

Return the recorded inhibition value; entry: O=C(c1ccc(-c2ccc(-c3cn(C(=O)N4CCCCC4c4ccccc4)nn3)cc2)cc1)N1CCCCC1 (centres undefined) 25

Item O=C(N1CCCCC1c1ccccc1)n1cc(-c2ccc(-c3ccc(CO)cc3)cc2)nn1 (centres undefined) : provide inhibition 90

State its inhibition: NC(=O)c1ccc(-c2ccc(-c3cn(C(=O)N4CCCCC4c4ccccc4)nn3)cc2)cc1 (centres undefined) 95

Could you please provide reported inhibition for O=C(N1CCCCC1Cc1ccccc1)n1cc(-c2ccc(-c3cccc(CO)c3)cc2)nn1 (centres undefined) ? Thanks! 25

Could you please provide reported inhibition for O=C(O)c1cccc(-c2ccc(-c3cn(C(=O)N4CCCCC4c4ccccc4)nn3)cc2)c1 (centres undefined) ? Thanks! 90
